Test: Clearance in Sprague-Dawley rat at 1 mg/kg, iv bolus
Format: ADME, organism-based
Design: dose 1 mg/kg, route intravenous
Conditions: in vivo
measurementKind: clearance (L/h/kg)
Please state the figure in L/h/kg; there is no need to write the unit.

Query: Requested field: clearance. Item: CNC(=O)C[C@@H]1NC(=O)c2csc(n2)-c2ccc(-c3nc(NC(=O)[C@H]4CC[C@H](C(=O)O)CC4)cs3)nc2-c2csc(n2)-c2csc(n2)[C@H]([C@@H](O)c2ccccc2)NC(=O)CNC(=O)c2nc(sc2COC)[C@H](C(C)C)NC(=O)c2nc1sc2C
Reply: 0.402

----------
// MIC lookup, one value per entry
Test system: Staphylococcus aureus
Test: Antibacterial activity against methicillin-resistant Staphylococcus aureus isolate A4.018 by CLSI M07-A8 method
Assay type: functional
Please state the figure in µg/mL; there is no need to write the unit.

Answered cases to consult:
# structureAsSmiles, unitAbbrev, MIC
rows = [
    ("CNC(=O)C[C@@H]1NC(=O)c2csc(n2)-c2ccc(-c3nc(-n4cnc(C(=O)O)c4)cs3)nc2-c2csc(n2)-c2csc(n2)[C@H]([C@@H](O)c2ccccc2)NC(=O)CNC(=O)c2nc(sc2COC)[C@H](C(C)C)NC(=O)c2nc1sc2C", "µg/mL", 4),
    ("CNC(=O)C[C@@H]1NC(=O)c2csc(n2)-c2ccc(-c3nc(NC(=O)NCCC(=O)O)cs3)nc2-c2csc(n2)-c2csc(n2)[C@H]([C@@H](O)c2ccccc2)NC(=O)CNC(=O)c2nc(sc2COC)[C@H](C(C)C)NC(=O)c2nc1sc2C", "µg/mL", 1),
    ("CNC(=O)C[C@@H]1NC(=O)c2csc(n2)-c2ccc(-c3nc(NC(=O)OC4CC(C)(C)NC(C)(C)C4)cs3)nc2-c2csc(n2)-c2csc(n2)[C@H]([C@@H](O)c2ccccc2)NC(=O)CNC(=O)c2nc(sc2COC)[C@H](C(C)C)NC(=O)c2nc1sc2C", "µg/mL", 1),
    ("CNC(=O)C[C@@H]1NC(=O)c2csc(n2)-c2ccc(-c3nc(NC(=O)OCCOCCOCCOC)cs3)nc2-c2csc(n2)-c2csc(n2)[C@H]([C@@H](O)c2ccccc2)NC(=O)CNC(=O)c2nc(sc2COC)[C@H](C(C)C)NC(=O)c2nc1sc2C", "µg/mL", 4),
    ("CNC(=O)C[C@@H]1NC(=O)c2csc(n2)-c2ccc(-c3nc(NC(C)=O)cs3)nc2-c2csc(n2)-c2csc(n2)[C@H]([C@@H](O)c2ccccc2)NC(=O)CNC(=O)c2nc(sc2COC)[C@H](C(C)C)NC(=O)c2nc1sc2C", "µg/mL", 2),
    ("CNC(=O)C[C@@H]1NC(=O)c2csc(n2)-c2ccc(-c3nc(NC(=O)OCCC[C@H](N)C(=O)O)cs3)nc2-c2csc(n2)-c2csc(n2)[C@H]([C@@H](O)c2ccccc2)NC(=O)CNC(=O)c2nc(sc2COC)[C@H](C(C)C)NC(=O)c2nc1sc2C", "µg/mL", 8),
    ("CNC(=O)C[C@@H]1NC(=O)c2csc(n2)-c2ccc(-c3nc(NC(=O)[C@H](CN)CCC(=O)O)cs3)nc2-c2csc(n2)-c2csc(n2)[C@H]([C@@H](O)c2ccccc2)NC(=O)CNC(=O)c2nc(sc2COC)[C@H](C(C)C)NC(=O)c2nc1sc2C", "µg/mL", 1),
]

Now for the molecule whose MIC we want.
Query: Reported MIC for Staphylococcus aureus, given CNC(=O)C[C@@H]1NC(=O)c2csc(n2)-c2ccc(-c3nc(NC(=O)OCCN4CCOCC4)cs3)nc2-c2csc(n2)-c2csc(n2)[C@H]([C@@H](O)c2ccccc2)NC(=O)CNC(=O)c2nc(sc2COC)[C@H](C(C)C)NC(=O)c2nc1sc2C ?
Reply: 1
